PROTOCOL_TEXT: sensitizers of A549 cells to miR-34 induction, primary screen, imaging, A549 dox-inducible miR-34, nuclei and caspase counts (AID 1347080)
CONDITION_SUMMARY: A549 miR-34 inducible, Hoechst nuclei count, 48 h; measured here: total cells with miR-34 induction; stronger effect = lower value
Group membership follows cell count per the scheme LOW (below 8000), MEDIUM (8000 to below 9000), HIGH (9000 or more)

COc1cc(C)c(C=CC(C)=CC=CC(C)=CC(=O)O)c(C)c1C : LOW
CCC1=C[C@@H]2CN(C1)Cc1c([nH]c3ccccc13)[C@@](C(=O)OC)(c1cc3c(cc1OC)N(C)[C@H]1[C@@](O)(C(=O)OC)[C@H](OC(C)=O)[C@]4(CC)C=CCN5CC[C@]31[C@@H]54)C2 : LOW
Cc1c(-c2ccc(O)cc2)n(Cc2ccc(OCCN3CCCCCC3)cc2)c2ccc(O)cc12 : LOW

Request: Lab log: CCCCC(=O)O[C@H]1CC[C@H]2[C@@H]3CCc4cc(O)ccc4[C@H]3CC[C@]12C — assign cell count category
Response: LOW

Request: Lab log: C=CCN1C[C@H](C(=O)N(CCCN(C)C)C(=O)NCC)C[C@@H]2c3cccc4[nH]cc(c34)C[C@H]21 — assign cell count category
Response: MEDIUM

====

PROTOCOL_TEXT: viability loss in pontine glioma line – cell-based, SU-DIPG-XXV, MIPE5.0, CellTiter-Glo, qHTS, dose response (AID 1347065);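 further: cells exposed to compound for 48 hours before ATP readout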
CONDITION_SUMMARY: CellTiter-Glo ATP luminescence
Records with an inconclusive call do not appear. Active and inactive are the calls of the source. No cut-off is given here; in the data, nearly all actives have AC50 up to about 26 µM.
Could you please pick one outcome from this set? Y for active, N for inactive

Nc1ccn([C@@H]2O[C@H](CO)[C@@H](O)C2O)c(=O)n1 (stereo not given in full) : N

Request: Hello, I am checking results. What call was entered for CN1C2CCC1CC(OC(=O)C(CO)c1ccccc1)C2 (stereo not given) ?
Response: N

Request: Hello, I am checking results. What call was entered for NC(N)=NC(N)=NCCc1ccccc1 ?
Response: N

Request: Hello, I am checking results. What call was entered for CCC(C)(Oc1ccc(C2(c3ccc(OC(C)(CC)C(=O)O)cc3)CCCCC2)cc1)C(=O)O (stereo not given) ?
Response: N

====

PROTOCOL_TEXT: growth inhibition of GSK3B-pretreated HCT116 cells – cell-based, CellTiter-Glo, 0.2 to 20 µM (AID 1117336)
CONDITION_SUMMARY: HCT116 viability after GSK3B inhibitor, at 20 µM
Active and inactive are the calls of the source.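 How the source made its calls: active means compounds lowering colon cancer cell viability after pretreatment blocking the GSK3B kinase; inactive means the rest.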
Could you please pick one outcome from this set? active, inactive

COc1cccc(N(C)C(=S)Oc2ccc3c(c2)CCCC3)n1 : inactive
O=C1CC[C@@H](C(=O)O)N1 : inactive
Cc1cccn2c(=O)c(-c3nnn[nH]3)cnc12 : inactive
O=C(O)CCn1c2c(c3ccccc31)C[C@H](NS(=O)(=O)c1ccc(F)cc1)CC2 : inactive
C#C[C@]1(OC(C)=O)CC[C@H]2[C@@H]3CCC4=C[C@@H](OC(C)=O)CC[C@@H]4[C@H]3CC[C@@]21C : inactive
FCOC(C(F)(F)F)C(F)(F)F : inactive
CC(C)(CO)[C@@H](O)C(=O)NCCCO : inactive
C=CCn1c(=O)n([C@@H]2O[C@H](CO)[C@@H](O)[C@H]2O)c2nc(N)[nH]c(=O)c21 : inactive

Request: Hello, I am checking results. What call was entered for CC1(C)Oc2ccc(C#N)cc2[C@@H](N2CCCC2=O)[C@@H]1O ?
Response: inactive

Request: Hello, I am checking results. What call was entered for COC(=O)C1=C(C)NC(C)=C(C(=O)OCCN2CCN(C(c3ccccc3)c3ccccc3)CC2)C1c1cccc([N+](=O)[O-])c1 (stereo not given) ?
Response: active
